System: Plasma
Test description: Protein binding in human plasma
Assay type: ADME, cell-free
Observation type: PPB

[
  {
    "Molecular string": "C[C@H]1CCCCN1c1ccc(N2CCN(S(=O)(=O)c3ccc4ncccc4c3)CC2)nn1",
    "PPB": "Active"
  },
  {
    "Molecular string": "C[C@H]1CCCCN1c1ccc(N2CCN(S(=O)(=O)c3nccn3C)CC2)nn1",
    "PPB": "Active"
  },
  {
    "Molecular string": "C[C@H]1CCCCN1c1ccc(N2CCN(S(=O)(=O)c3ccccc3C(F)(F)F)CC2)nn1",
    "PPB": "Active"
  },
  {
    "Molecular string": "C[C@H]1CCCCN1c1ccc(N2CCN(S(=O)(=O)c3ccc(Cl)cc3)CC2)nn1",
    "PPB": "Active"
  },
  {
    "Molecular string": "COc1ccc(S(=O)(=O)N2CCN(c3ccc(N4CCCC[C@@H]4C)nn3)CC2)cc1OC",
    "PPB": "Active"
  },
  {
    "Molecular string": "C[C@H]1CCCCN1c1ccc(N2CCN(S(=O)(=O)c3cccc(Cl)c3)CC2)nn1",
    "PPB": "Active"
  },
  {
    "Molecular string": "C[C@H]1CCCCN1c1ccc(N2CCN(S(=O)(=O)c3ccccc3)CC2)nn1",
    "PPB": "Active"
  },
  {
    "Molecular string": "C[C@H]1CCCCN1c1ccc(N2CCN(S(=O)(=O)c3ccc4c(c3)OCO4)CC2)nn1",
    "PPB": "Active"
  }
]

Then there is this molecule:
**Q:** Reported PPB for C[C@H]1CCCCN1c1ccc(N2CCN(S(=O)(=O)C3CCCCC3)CC2)nn1 : what is it?
**A:** Active

====

Test system: Muscarinic acetylcholine receptor M4 (Homo sapiens)
Sequence (P08173 whole entry): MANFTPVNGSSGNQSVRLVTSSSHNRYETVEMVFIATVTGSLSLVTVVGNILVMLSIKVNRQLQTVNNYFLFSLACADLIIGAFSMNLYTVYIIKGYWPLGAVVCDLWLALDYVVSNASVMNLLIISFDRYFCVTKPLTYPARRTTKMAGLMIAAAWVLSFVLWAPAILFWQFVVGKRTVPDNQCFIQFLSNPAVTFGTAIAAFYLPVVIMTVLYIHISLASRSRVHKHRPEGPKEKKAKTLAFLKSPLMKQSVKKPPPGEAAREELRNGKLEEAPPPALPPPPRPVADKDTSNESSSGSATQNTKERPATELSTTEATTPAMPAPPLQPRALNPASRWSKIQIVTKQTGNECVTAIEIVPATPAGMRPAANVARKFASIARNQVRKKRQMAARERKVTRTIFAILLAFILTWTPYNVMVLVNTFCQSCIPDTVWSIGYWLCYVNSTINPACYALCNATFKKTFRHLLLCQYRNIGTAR
Test description: Antagonist activity at human muscarinic M4 receptor
Observation type: IC50 (nM)
Write down the numeric answer in nM and omit the unit.

**Q:** So what IC50 did CC1CCCCN1c1ccc(N2CCN(S(=O)(=O)c3ccccc3Cl)CC2)nn1 (racemic) get with Muscarinic acetylcholine receptor M4 (Homo sapiens)?
**A:** 1000

====

Test system: Muscarinic acetylcholine receptor M1 (Homo sapiens, UniProt P11229)
Sequence (P11229 whole entry): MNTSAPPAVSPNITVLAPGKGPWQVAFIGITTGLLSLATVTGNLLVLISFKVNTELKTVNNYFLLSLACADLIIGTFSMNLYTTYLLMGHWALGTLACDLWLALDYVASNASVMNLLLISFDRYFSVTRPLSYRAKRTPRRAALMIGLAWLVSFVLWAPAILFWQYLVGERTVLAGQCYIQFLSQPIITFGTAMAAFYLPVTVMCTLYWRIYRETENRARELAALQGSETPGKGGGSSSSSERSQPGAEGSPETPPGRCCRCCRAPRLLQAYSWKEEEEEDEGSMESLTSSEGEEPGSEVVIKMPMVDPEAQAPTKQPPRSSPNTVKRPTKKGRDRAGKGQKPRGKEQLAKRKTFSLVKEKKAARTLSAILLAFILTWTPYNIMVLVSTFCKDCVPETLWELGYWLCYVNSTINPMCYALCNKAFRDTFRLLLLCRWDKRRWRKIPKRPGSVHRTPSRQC
Test description: Antagonist activity at human recombinant muscarinic M1 receptor expressed in CHO cells co-transfected with Gqi5 in presence of EC80 acetylcholine by calcium mobilization assay
Listing of recorded pIC50 by entry.
Field pIC50 (float): negative decimal logarithm of the concentration in molar.

[
  {
    "Molecular string": "C[C@H]1CCCCN1c1ccc(N2CCN(S(=O)(=O)c3ccccc3Cl)CC2)nn1",
    "Assay value": 5.89
  }
]

Lab note: next compound to report on.
**Q:** Given Cc1noc(C)c1S(=O)(=O)N1CCN(c2ccc(N3CCCC(C)(C)C3)nn2)CC1 , state its recorded pIC50.
**A:** 6.54

====

Test system: Muscarinic acetylcholine receptor M4 (Homo sapiens)
Test description: Antagonist activity at human recombinant muscarinic M4 receptor expressed in CHO cells co-transfected with Gqi5 in presence of EC80 acetylcholine by calcium mobilization assay
Assay type: functional, cell-based
Test conditions: read-out: IC50
Criterion: IC50 strictly less than 500 nM. Met: TRUE. Not met: FALSE.

[
  {
    "Molecular string": "C[C@H]1CCCCN1c1ccc(N2CCN(S(=O)(=O)c3ccccc3C(F)(F)F)CC2)nn1",
    "Class label": "FALSE"
  }
]

**Q:** # TODO verify IC50 < 500 nM strictly for this compound: O=C1CCCCN1c1ccc(N2CCN(S(=O)(=O)c3ccccc3Cl)CC2)nn1
**A:** FALSE

**Q:** Consider C[C@H]1CCCCN1c1ccc(N2CCN(S(=O)(=O)c3ccccc3Cl)CC2)nn1 . Does its IC50 lie strictly below 500 nM?
**A:** TRUE

**Q:** Criterion: IC50 strictly below 500 nM. Is it met by C[C@H]1CCCCN1c1ccc(N2CCN(S(=O)(=O)c3ccc4c(c3)OCO4)CC2)nn1 ?
**A:** TRUE

**Q:** Criterion: IC50 strictly below 500 nM. Is it met by C[C@H]1COCCN1c1ccc(N2CCN(S(=O)(=O)c3ccc4c(c3)OCO4)CC2)nn1 ?
**A:** FALSE

**Q:** I'd appreciate it if you could check whether Cc1noc(C)c1S(=O)(=O)N1CCN(c2ccc(N3CCOC[C@@H]3C)nn2)CC1 has IC50 smaller than 500 nM.
**A:** FALSE

**Q:** # check: IC50 < 500 nM for O=S(=O)(c1ccc2c(c1)OCO2)N1CCN(c2ccc(N3CCCCC3)nn2)CC1
**A:** FALSE

**Q:** API: query returns whether the compound falls strictly under 500 nM in IC50. Query: C[C@H]1CCCCN1c1ccc(N2CCN(S(=O)(=O)c3ccccc3)CC2)nn1
**A:** FALSE

**Q:** Regarding C[C@H]1COCCN1c1ccc(N2CCN(S(=O)(=O)c3ccccc3Cl)CC2)nn1 , kindly confirm whether its IC50 is beneath 500 nM.
**A:** FALSE
